The origin of these recorded values is ChEMBL document CHEMBL4622844.

- System: Escherichia coli
- Experimental details: Antimicrobial activity against Escherichia coli BL21 assessed as inhibition of colony formation at 10 uM preincubated for 4 hrs and measured after overnight incubation by CFU assay
- Type: functional
Reported inhibition at 10 µM is given for each of the following molecules.

Smiles | inhibition at 10 µM, %
C[n+]1ccn(CCCCCCCCCCCCCCn2cc[n+](C)c2)c1 | 32
CCCCCCCCCCCC[n+]1ccn(CCCCCCCCCCn2cc[n+](CCCCCCCCCCCC)c2)c1 | 100
CCCCCCCC[n+]1ccn(CCCCCCCCCCn2cc[n+](CCCCCCCC)c2)c1 | 100
CCCCCCCCCCC[n+]1ccn(CCCCCCCCCCCCCCCCn2cc[n+](CCCCCCCCCCC)c2)c1 | 100
